Cited source: the supplement of paper PMC10567573

B1: BCL2L13 (parent)
chain: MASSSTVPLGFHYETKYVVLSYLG

Variants of: B1
Assay: protein stability index of a GFP-peptide fusion (GPS, HEK-293T) (PSI 1-6); higher = more stable;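 note: lentivirally expressed fusions sorted by FACS into six bins by GFP to DsRed ratio, PSI derived from sequencing read proportions per bin multiplied by bin number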
Settings: c terminus: a fixed tail appended
Measurement Name: protein stability index
Give the figure by itself; no unit, no explanation.

For `K16G` , what is its reported protein stability index?
2.38

For `Y22W` , what is its reported protein stability index?
2.89

For `A2M` , what is its reported protein stability index?
2.68

For `G24W` , what is its reported protein stability index?
3.89

For `V19E` , what is its reported protein stability index?
1.7
